target.or.test.system: human TLR9 (Homo sapiens)
Sequence (Q9NR96 26-1032): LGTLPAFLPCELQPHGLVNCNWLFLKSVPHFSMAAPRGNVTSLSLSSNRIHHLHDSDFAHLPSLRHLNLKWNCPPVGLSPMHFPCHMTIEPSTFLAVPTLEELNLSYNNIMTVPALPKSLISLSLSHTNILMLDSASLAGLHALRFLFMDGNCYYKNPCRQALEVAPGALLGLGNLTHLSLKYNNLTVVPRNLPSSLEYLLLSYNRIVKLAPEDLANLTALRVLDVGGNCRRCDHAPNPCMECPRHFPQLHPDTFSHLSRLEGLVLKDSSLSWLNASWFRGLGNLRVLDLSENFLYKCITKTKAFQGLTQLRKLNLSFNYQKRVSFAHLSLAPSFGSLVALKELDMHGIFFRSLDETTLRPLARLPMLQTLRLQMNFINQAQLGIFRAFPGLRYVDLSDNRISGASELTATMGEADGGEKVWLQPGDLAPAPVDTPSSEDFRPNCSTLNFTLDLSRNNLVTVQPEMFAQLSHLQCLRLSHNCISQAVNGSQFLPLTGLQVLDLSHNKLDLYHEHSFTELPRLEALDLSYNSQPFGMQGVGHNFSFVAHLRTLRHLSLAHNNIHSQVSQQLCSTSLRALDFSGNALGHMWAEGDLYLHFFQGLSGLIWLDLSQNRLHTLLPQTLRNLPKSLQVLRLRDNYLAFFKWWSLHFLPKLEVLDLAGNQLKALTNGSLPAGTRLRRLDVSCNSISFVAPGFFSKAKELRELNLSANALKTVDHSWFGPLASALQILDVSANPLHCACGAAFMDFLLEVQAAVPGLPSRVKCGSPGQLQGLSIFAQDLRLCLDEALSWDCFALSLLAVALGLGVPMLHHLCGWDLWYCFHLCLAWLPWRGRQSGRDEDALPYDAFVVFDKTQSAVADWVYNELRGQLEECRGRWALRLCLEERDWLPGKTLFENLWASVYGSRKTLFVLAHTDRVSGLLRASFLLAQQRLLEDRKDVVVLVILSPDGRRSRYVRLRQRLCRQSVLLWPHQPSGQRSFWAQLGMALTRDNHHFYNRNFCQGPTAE
procedure.details: TLR9 inhibition reporter assay (HEK-Blue cells, SEAP reporter)
condition.description: HEK-Blue cells overexpressing human TLR9; stimulated with ODN2006 5 nM; 22 hour incubation; SEAP readout
pIC50: −log10 of the molar value.
measurement.label: pIC50

Known pIC50 results, listed for orientation:
What does the record list as pIC50 for COc1ccc(-c2cn3cc(C4CCN(C5CC6CCC(C5)N6C(C)C)CC4)cc(C)c3n2)cc1OC (single isomer, unassigned) [Example 23] ? 6.62

What does the record list as pIC50 for CS(=O)(=O)c1ccc(-c2cn3cc(C4CCN(C5CC6CCC(C5)N6C5CCOCC5)CC4)cc(F)c3n2)cc1 (single isomer, unassigned) [Example 122] ? 8.11

What does the record list as pIC50 for "COc1ccc(-c2nc3cc(C4CCN(C5CCN(C(C)C)CC5)CC4)ccn3n2)cc1OC" ? 5.96

What does the record list as pIC50 for "COc1ccc(-c2nc3ccc(C4CCN(C5CCN(C6CC6)CC5)CC4)cn3n2)cc1OC" ? 6.41

What does the record list as pIC50 for Cc1cc(C2CCN(C3CC4CCC(C3)N4CC3CC3)CC2)cn2cc(-c3ccc(S(C)(=O)=O)cc3)nc12 (single isomer, unassigned) [Example 88] ? 6.92

[a] COc1ccc(-c2cn3cc(C4CCN(C5CC6CCC(C5)N6CC5CC5)CC4)cc(C)c3n2)cc1OC (single isomer, unassigned) [Example 21]
[b] COc1ccc(-c2cn3cc(C4CCN(C5CCN(C(C)C)CC5)CC4)cc(C)c3n2)cc1OC
In the pair a and b , the larger recorded pIC50 belongs to which? Provide the label of your selected option as the answer. b
(b: 7.28, a: 6.90)
